Overview of reported pEC50 across a group of compounds:
# System: GP2D (KRAS G12D) cells
# test: 2D cell viability assay (CellTiter-Glo)
# Format: cell-based
# condition_info: GP2d, 96 h, 4 days
// scale note: pEC50 = -log10(conc_M); give the bare number

Consider the compound `C#Cc1c(F)ccc2cc(O)cc(-c3nc4c5c(nc(OC[C@@]67CCCN6C[C@H](F)C7)nc5c3F)N3C[C@H]5CC[C@H](N5)[C@H]3[C@H](C)O4)c12` . State its measured pEC50.
8.70

Given `Oc1cc(-c2nc3c4c(nc(OC[C@@]56CCCN5C[C@H](F)C6)nc4c2F)N2C[C@H]4CC[C@H](N4)[C@H]2CO3)c2c(CC3CC3)c(F)ccc2c1` , respond with its pEC50.
6.28

Specify measured pEC50 for `C#Cc1c(F)ccc2cc(O)cc(-c3nc4c5c(nc(OCC6(CN7CC[C@@H](C(F)(F)F)C7)CC6)nc5c3F)N3C[C@H]5CC[C@H](N5)[C@H]3CO4)c12` .
8.30

Query pEC50 for `C#Cc1c(F)ccc2cccc(-c3nc4c5c(nc(OC[C@@]67CCCN6C[C@H](F)C7)nc5c3F)N3C[C@H]5CC[C@H](N5)[C@H]3[C@H](C)C4)c12`
7.72

State its pEC50 for this compound: `C#Cc1c(F)ccc2cccc(-c3nc4c5c(nc(OCC6(CN7CCC(OC(F)(F)F)CC7)CC6)nc5c3F)N3C[C@H]5CC[C@H](N5)[C@H]3CCC4)c12`
7.05

Find the measured pEC50 of `C#Cc1c(F)ccc2cc(O)cc(-c3nc4c5c(nc(OC[C@@]67CCCN6[C@H](COC(C)(C(F)(F)F)C(F)(F)F)CC7)nc5c3F)N3C[C@H]5CC[C@H](N5)[C@H]3CC4)c12` and report it.
8.92
